# TARGET_OR_SYSTEM: UniProtKB Q9Y2I7
# Sequence (Q9Y2I7 whole entry): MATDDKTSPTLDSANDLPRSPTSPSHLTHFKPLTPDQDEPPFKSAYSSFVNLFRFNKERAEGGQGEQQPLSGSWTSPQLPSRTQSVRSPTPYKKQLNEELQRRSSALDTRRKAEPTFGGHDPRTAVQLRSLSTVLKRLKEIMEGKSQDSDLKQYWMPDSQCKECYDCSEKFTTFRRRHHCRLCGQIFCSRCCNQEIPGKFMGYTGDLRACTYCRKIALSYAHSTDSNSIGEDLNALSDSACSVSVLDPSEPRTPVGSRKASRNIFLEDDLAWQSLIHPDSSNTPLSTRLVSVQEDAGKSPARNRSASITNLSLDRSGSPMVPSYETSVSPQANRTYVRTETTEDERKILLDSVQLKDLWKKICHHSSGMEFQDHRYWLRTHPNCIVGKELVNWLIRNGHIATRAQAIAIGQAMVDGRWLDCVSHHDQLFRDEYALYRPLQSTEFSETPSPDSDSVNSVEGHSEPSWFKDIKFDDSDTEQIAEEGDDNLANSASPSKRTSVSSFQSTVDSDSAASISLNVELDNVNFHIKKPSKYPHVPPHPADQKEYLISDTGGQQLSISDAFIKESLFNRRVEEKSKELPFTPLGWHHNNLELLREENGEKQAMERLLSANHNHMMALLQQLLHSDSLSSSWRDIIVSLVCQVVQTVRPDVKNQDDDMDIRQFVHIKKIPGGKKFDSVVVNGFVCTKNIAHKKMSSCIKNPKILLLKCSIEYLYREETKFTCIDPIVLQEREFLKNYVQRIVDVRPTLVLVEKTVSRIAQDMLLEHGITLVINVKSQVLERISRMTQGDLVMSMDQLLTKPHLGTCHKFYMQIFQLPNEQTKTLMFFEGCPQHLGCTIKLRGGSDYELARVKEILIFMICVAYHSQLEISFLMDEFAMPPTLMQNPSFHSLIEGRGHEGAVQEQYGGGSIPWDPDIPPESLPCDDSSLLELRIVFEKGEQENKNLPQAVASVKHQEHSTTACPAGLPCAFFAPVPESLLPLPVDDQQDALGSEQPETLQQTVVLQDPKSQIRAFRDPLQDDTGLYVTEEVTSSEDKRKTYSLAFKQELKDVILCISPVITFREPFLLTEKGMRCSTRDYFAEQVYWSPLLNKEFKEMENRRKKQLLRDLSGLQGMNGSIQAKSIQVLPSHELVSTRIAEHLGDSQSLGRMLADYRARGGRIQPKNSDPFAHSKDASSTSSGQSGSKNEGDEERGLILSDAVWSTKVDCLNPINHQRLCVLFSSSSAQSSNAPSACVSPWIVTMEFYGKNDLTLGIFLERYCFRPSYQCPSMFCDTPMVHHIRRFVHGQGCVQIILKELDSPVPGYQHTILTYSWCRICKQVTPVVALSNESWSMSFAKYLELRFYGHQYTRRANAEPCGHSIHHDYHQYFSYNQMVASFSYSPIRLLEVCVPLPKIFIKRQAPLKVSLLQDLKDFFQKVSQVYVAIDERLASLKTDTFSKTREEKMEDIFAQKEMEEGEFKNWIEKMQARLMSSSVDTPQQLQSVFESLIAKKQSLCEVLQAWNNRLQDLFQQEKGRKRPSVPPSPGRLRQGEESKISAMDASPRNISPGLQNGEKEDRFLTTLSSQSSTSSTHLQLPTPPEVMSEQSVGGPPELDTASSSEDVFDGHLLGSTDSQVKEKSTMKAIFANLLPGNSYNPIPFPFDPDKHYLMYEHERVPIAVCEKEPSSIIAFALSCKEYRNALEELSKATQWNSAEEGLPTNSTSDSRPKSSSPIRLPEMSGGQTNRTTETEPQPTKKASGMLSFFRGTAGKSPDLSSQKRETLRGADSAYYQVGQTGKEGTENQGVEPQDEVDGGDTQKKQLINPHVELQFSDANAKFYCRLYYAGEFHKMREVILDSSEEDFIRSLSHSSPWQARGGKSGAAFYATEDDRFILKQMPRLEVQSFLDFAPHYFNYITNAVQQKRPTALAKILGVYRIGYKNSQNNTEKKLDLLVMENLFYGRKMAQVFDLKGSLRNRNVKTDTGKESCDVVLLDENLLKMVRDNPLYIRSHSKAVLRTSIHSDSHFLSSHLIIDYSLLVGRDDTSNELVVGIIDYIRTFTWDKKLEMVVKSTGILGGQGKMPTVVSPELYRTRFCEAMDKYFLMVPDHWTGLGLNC
# ASSAY_REMARKS: PIKFYVE assay (luciferase ADP-Glo kinase assay, Promega)
# Assay type: biochemical
# CONDITION_CONTEXT: Table 3
Attribute: IC50
MEASURED_METRIC: IC50

> print(dat)
                                   molecule          result
1  COCc1cccc(-c2ccn(-c3cc(N4CCOCC4)nc([C@@H](CO)OC)n3)n2)c1      3 to 10 nM
2  CO[C@@H](CO)c1nc(N2CCOCC2)cc(-n2nc(-c3cnc4ccccn34)cc2C)n1  100 to 5000 nM
3  C[C@@H](O)c1cccc(-c2ccn(-c3cc(N4CCOCC4)nc(OCCc4cnn(C)c4)n3)n2)c1 (single isomer, unassigned)          < 3 nM
4  CC[C@H](OC)c1nc(N2CCOCC2)cc(-n2ccc(-c3cccc(C)c3)n2)n1 (single isomer, unassigned)    10 to 100 nM
